pKi: −log10 of the molar value.
Data export: pKi values recorded with c-Met (Homo sapiens).
Sequence (P08581 25-1390): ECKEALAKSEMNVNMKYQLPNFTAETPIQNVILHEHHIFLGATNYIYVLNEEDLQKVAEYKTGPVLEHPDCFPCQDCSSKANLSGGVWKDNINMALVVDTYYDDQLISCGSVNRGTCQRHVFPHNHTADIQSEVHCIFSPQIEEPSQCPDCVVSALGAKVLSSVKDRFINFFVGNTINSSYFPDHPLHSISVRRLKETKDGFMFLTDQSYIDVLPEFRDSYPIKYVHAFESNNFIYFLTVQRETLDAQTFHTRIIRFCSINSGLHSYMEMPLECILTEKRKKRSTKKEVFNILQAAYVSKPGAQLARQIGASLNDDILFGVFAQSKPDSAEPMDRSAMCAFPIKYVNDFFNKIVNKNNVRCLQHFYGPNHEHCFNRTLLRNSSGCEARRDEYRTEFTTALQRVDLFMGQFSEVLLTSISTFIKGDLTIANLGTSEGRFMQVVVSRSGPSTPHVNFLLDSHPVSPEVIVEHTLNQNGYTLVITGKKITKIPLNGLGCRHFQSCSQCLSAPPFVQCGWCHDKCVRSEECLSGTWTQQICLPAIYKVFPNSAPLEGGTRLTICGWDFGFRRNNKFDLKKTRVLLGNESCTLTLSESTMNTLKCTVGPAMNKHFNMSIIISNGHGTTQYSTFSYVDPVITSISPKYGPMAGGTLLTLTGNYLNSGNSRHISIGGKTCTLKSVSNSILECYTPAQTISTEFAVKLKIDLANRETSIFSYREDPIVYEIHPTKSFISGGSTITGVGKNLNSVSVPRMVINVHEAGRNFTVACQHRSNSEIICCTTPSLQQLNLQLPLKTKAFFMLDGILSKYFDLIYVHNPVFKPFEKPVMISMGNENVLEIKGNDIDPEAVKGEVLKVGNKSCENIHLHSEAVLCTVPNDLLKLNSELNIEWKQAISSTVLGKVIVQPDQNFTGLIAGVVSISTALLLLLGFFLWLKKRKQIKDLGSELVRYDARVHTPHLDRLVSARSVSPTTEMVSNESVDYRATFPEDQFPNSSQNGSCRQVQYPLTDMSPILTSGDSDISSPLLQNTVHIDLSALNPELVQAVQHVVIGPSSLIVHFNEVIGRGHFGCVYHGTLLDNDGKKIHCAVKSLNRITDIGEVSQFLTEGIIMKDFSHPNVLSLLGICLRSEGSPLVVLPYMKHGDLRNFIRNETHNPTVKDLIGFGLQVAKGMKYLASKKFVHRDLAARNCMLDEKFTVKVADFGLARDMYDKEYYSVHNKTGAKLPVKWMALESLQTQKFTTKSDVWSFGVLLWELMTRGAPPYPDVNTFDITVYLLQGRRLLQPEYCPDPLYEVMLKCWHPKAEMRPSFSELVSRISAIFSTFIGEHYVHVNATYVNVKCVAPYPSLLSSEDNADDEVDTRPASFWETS

Examples with answers:
# Compound, Reported result
records = [
    ("CC(C)N(C)C(=O)c1ccc(-c2cnc3c(-c4ccccn4)c(N)nn3c2)nc1 [Compound V-67]", "> 6.30"),
    ("CCN(CC)CCN(C)C(=O)c1ccc(-c2cnc3c(-c4ccccn4)c(N)nn3c2)nc1 [Compound V-88]", "> 6.30"),
    ("COCCCN1CCN(C(=O)c2cccc(-c3cnc4c(-c5ccccn5)c(N)nn4c3)n2)CC1 [Compound V-117]", "> 6.30"),
    ("CNCCCN(C)C(=O)c1ccc(-c2cnc3c(-c4ccccn4)c(N)nn3c2)cc1 [Compound V-191]", "> 6.30"),
    ("Nc1ccc(CNC(=O)c2cnc3c(-c4ccccn4)c(N)nn3c2)cc1 [Compound V-199]", "5.30 to 6.30"),
]

Continue with the next compound.
Q) Recorded pKi of Cc1cnc2c(-c3cc(N4CCC(CCc5ccccc5)C4)ncn3)c(N)nn2c1 (stereo not shown) [Compound V-304] , please.
A) 5.30 to 6.30

====

Data export: Ki values recorded with JAK3 (Homo sapiens, UniProt P52333).
Sequence (P52333 whole entry, species assumed): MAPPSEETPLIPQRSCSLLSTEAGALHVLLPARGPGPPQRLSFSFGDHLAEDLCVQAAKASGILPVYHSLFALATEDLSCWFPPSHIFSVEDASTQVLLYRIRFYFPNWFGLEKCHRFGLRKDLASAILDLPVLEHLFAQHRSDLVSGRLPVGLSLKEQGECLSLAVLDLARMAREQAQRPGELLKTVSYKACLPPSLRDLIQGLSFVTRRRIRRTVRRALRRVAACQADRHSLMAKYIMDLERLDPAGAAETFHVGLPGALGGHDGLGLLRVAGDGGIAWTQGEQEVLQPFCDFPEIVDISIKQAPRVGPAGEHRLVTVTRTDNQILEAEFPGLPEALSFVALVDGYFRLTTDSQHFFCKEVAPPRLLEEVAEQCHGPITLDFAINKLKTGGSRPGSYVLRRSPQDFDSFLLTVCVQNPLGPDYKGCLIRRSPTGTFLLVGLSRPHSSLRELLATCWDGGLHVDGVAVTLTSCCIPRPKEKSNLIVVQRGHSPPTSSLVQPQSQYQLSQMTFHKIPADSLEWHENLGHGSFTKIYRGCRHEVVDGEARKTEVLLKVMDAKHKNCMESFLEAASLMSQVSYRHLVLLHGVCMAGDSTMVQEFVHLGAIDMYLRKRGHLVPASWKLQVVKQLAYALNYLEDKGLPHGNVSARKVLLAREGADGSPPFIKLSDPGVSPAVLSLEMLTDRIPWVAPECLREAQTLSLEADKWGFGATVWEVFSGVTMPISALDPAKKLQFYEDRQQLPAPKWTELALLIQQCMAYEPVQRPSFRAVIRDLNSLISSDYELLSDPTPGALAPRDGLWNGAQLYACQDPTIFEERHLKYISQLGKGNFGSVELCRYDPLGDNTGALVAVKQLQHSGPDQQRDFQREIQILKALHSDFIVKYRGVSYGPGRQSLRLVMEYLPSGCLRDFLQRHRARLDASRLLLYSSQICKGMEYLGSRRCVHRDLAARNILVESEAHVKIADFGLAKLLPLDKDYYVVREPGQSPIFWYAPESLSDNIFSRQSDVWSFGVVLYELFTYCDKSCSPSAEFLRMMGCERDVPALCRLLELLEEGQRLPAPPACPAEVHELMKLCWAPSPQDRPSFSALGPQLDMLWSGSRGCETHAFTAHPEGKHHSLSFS

Examples with answers:
# Compound, Ki
records = [
    ("CCN(CCN)C(=O)c1ccc(-c2cnc3c(-c4ccccn4)c(N)nn3c2)nc1 [Compound V-62]", "0.5 to 5 µM"),
    ("CN1CCC(N(C)C(=O)c2ccc(-c3cnc4c(-c5ccccn5)c(N)nn4c3)nc2)CC1 [Compound V-61]", "0.5 to 5 µM"),
    ("CCN(C)C(=O)c1ccc(-c2cnc3c(-c4ccccn4)c(N)nn3c2)nc1 [Compound V-89]", "0.5 to 5 µM"),
    ("Nc1nn2cc(-c3cccc(C(=O)N4CCCC4CO)n3)cnc2c1-c1ccccn1 (stereo not drawn) [Compound V-112]", "> 5 µM"),
    ("Nc1nn2cc(-c3ccncn3)cnc2c1C(=O)N1CCC[C@H]1CN1CCCC1 [Compound V-34]", "> 5 µM"),
]

Q) Recorded Ki of Cc1ccnc(-c2c(N)nn3cc(-c4ccncc4)cnc23)c1 [Compound V-133] , please.
A) 0.5 to 5 µM

====

Test target: c-Met (Homo sapiens)
pKi: −log10 of the molar value.
Measured pKi of individual entries

# Molecule, pKi
data = [
    ("CN(CCC#N)C(=O)c1c(N)nn2cc(-c3ccncn3)cnc12 [Compound V-40]", "5.30 to 6.30"),
    ("Nc1nn2cc(-c3ccnc(N4CCN(c5cnccn5)CC4)c3)cnc2c1-c1ccccn1 [Compound V-255]", "5.30 to 6.30"),
    ("Cc1cnc2c(-c3cc(N4CCC[C@H]4CO)ncn3)c(N)nn2c1 [Compound V-306]", "> 6.30"),
    ("Cc1cnc2c(-c3cc(N4CCC(NC(=O)C(F)(F)F)C4)ncn3)c(N)nn2c1 (stereo not drawn) [Compound V-343]", "5.30 to 6.30"),
    ("N#Cc1ccccc1-c1cnc2c(-c3ccccn3)c(N)nn2c1 [Compound V-10]", "5.30 to 6.30"),
]

Continue with the next molecule.
Q) Recorded pKi of Nc1nn2cc(-c3cccc(C(=O)N4CCC(N)CC4)n3)cnc2c1-c1ccccn1 [Compound V-104] , please.
A) > 6.30

src = patent US7528138B2
